System: LG0567-F671-PDC complex spheroids viability
Assay: Anticancer human tumor LG0567-F671-PDC patient-derived lung adenocarcinoma cell line growth inhibition [RAS]
Details: second compound 1 µM; first compound 0.000949 µM; stronger effect = lower value

molecule	viability, T/C
CC1(C)CCC(Nc2ncc(C(F)(F)F)c(-c3c[nH]c4c(P(C)(C)=O)c(C#N)ccc34)n2)CN1 (centres undefined) + C#Cc1c(F)ccc2cc(O)cc(-c3ncc4c(N5CC6CCC(C5)N6)nc(OCC56CCCN5CC(F)C6)nc4c3F)c12	22.6%
CCc1c2c(nc3ccc(O)cc13)-c1cc3c(c(=O)n1C2)COC(=O)[C@]3(O)CC + C=CC(=O)N1CCN(c2nc(OCC3CCCN3C)nc3c(F)c(-c4nc(N)cc(C)c4C(F)(F)F)c(Cl)cc23)C(C)C1	13.1%
CCc1c2c(nc3ccc(O)cc13)-c1cc3c(c(=O)n1C2)COC(=O)[C@]3(O)CC + C#Cc1c(F)ccc2cc(O)cc(-c3ncc4c(N5CC6CCC(C5)N6)nc(OCC56CCCN5CC(F)C6)nc4c3F)c12	30.5%
CC1(C)CCC(Nc2ncc(C(F)(F)F)c(-c3c[nH]c4c(P(C)(C)=O)c(C#N)ccc34)n2)CN1 (centres undefined) + C=CC(=O)N1CCN(c2nc(OCC3CCCN3C)nc3c(F)c(-c4nc(N)cc(C)c4C(F)(F)F)c(Cl)cc23)C(C)C1	10.2%

----------
System: LG0567-F671-PDC complex spheroids viability
Assay: Anticancer human tumor LG0567-F671-PDC cell line growth inhibition [RAS];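 further: spheroids exposed to compound for seven days before readout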
Details: compound 0.316 µM; stronger effect = lower value
Each entry below carries its reported viability, T/C.

compound	viability, T/C
CCN1CCN(Cc2ccc(Nc3ncc(F)c(-c4cc(F)c5nc(C)n(C(C)C)c5c4)n3)nc2)CC1	75.6% [middle of 4 runs]
C=CC(=O)Nc1cc(Nc2nccc(-c3cn(C)c4ccccc34)n2)c(OC)cc1N(C)CCN(C)C	42.7% [middle of 4 runs]
Nc1ccn(C2OC(CO)C(O)C2(F)F)c(=O)n1 (configuration not stated)	69.5% [middle of 4 runs]
C#Cc1c(F)ccc2cc(O)cc(-c3ncc4c(N5CC6CCC(C5)N6)nc(OCC56CCCN5CC(F)C6)nc4c3F)c12 (configuration not stated)	56.1% [middle of 8 runs]
CC(C)NCC(C(=O)N1CCN(c2ncnc3c2C(C)CC3O)CC1)c1ccc(Cl)cc1 (configuration not stated)	77.4% [middle of 4 runs]
NC1c2ccccc2OC12CCN(c1cnc3c(N4CCCc5ncccc54)n[nH]c3n1)CC2 (configuration not stated)	23.4% [middle of 4 runs]
CC(Nc1ccc2c(c1)OCCn1cc(N3C(=O)OCC3C(F)F)nc1-2)C(N)=O (configuration not stated)	52.5% [middle of 4 runs]
C=CC(=O)N1CCN(c2nc(OCC3CCCN3C)nc3c(F)c(-c4nc(N)cc(C)c4C(F)(F)F)c(Cl)cc23)C(C)C1 (configuration not stated)	13.8% [middle of 12 runs]
CC1(O)CCCC1n1c(=O)c(C(F)F)cc2cnc(NC3CCN(S(C)(=O)=O)CC3)nc21 (configuration not stated)	81.6% [middle of 4 runs]
CC(=O)OC12COC1CC(O)C1(C)C(=O)C(O)C3=C(C)C(OC(=O)C(O)C(NC(=O)OC(C)(C)C)c4ccccc4)CC(O)(C(OC(=O)c4ccccc4)C21)C3(C)C (configuration not stated)	58.4% [middle of 4 runs]
Cc1nc(N2CCC3(CC2)COC(C)C3N)c(CO)nc1Sc1ccnc(N)c1Cl (configuration not stated)	36.3% [middle of 4 runs]
O=C(c1ccc(F)c(F)c1Nc1ccc(I)cc1F)N1CC(O)([C@@H]2CCCCN2)C1	11.1% [middle of 4 runs]
